# targetUnderTest: Kappa-type opioid receptor (Homo sapiens)
# testSummary: Displacement of [125I]-IBNalA from KOR-1 expressed in CHO cells
# Type: cell-based
measuredAttribute: pKi
Answers are plain numbers, as −log10 of the molar value.

**Q:** Please look up its pKi: N=C(N)Nc1ccc2[nH]c3c(c2c1)C[C@@]1(O)[C@H]2Cc4ccc(O)c5c4[C@@]1(CCN2CC1CC1)[C@H]3O5 [GUANIDINONALTRINDOLE]
**A:** 9.72

---

# targetUnderTest: Mu-type opioid receptor (Homo sapiens, UniProt P35372)
# Sequence (P35372 whole entry): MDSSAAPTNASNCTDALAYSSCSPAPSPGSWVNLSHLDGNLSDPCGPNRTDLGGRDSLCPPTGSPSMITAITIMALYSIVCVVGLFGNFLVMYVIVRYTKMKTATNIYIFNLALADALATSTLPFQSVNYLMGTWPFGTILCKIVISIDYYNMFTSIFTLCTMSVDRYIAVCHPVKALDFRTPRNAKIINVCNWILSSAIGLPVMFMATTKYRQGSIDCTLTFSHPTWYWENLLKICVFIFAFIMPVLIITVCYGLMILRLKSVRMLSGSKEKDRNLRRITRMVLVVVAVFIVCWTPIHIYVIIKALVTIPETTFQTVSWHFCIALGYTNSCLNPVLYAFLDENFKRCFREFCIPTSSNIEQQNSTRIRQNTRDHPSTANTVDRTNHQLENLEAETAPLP
# testSummary: biochemical
# Assay type: cell-based, CHO
measuredAttribute: Ki (nM)
Give bare numbers, in nM.

**Q:** Please look up its Ki: C=CCN1CC[C@]23CCCC[C@H]2[C@H]1Cc1ccc(O)cc13 [LEVALLORPHAN]
**A:** 1.69

---

For each record, write down the corresponding pKd.
# targetUnderTest: Delta-type opioid receptor (Homo sapiens)
# testSummary: Binding affinity to DOR-1 expressed in CHO cells after 90 mins
Give bare numbers, as −log10 of the molar value.

{"smiles": "C=CCN1CC[C@]23c4c5ccc(O)c4O[C@H]2[C@H](NC(=O)c2cccc([125I])c2)CC[C@@]3(O)[C@H]1C5", "measuredAttribute": "pKd", "valueReported": 8.60}

// next item, pKd requested
**Q:** Please look up its pKd: O=C(N[C@@H]1CC[C@@]2(O)[C@H]3Cc4ccc(O)c5c4[C@@]2(CCN3CC2CC2)[C@H]1O5)c1cccc([125I])c1
**A:** 9.62

---

# targetUnderTest: Mu-type opioid receptor (Homo sapiens)
# testSummary: biochemical
# Format: cell-based, CHO
measuredAttribute: pKi
One number for each entry, as −log10 of the molar value.

**Q:** Please look up its pKi: C=CCN1CC[C@]23CCCC[C@H]2[C@H]1Cc1ccc(O)cc13 [LEVALLORPHAN]
**A:** 8.89

---

# targetUnderTest: Kappa-type opioid receptor (Homo sapiens, UniProt P41145)
# Sequence (P41145 whole entry): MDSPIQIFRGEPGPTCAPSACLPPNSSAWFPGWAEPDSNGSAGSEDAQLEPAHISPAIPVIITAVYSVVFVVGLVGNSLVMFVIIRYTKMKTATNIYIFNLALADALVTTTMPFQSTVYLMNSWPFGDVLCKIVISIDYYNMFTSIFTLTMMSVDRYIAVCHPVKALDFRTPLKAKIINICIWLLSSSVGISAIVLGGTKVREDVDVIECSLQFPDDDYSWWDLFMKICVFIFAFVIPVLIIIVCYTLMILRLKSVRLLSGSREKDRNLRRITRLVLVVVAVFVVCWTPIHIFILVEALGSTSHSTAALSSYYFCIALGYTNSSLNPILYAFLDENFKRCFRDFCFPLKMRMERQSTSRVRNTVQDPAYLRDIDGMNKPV
measuredAttribute: pKd
Numbers only, as −log10 of the molar value.

{"smiles": "C=CCN1CC[C@]23c4c5ccc(O)c4O[C@H]2[C@H](NC(=O)c2cccc([125I])c2)CC[C@@]3(O)[C@H]1C5", "valueReported": 10.30}

**Q:** Please look up its pKd: O=C(N[C@@H]1CC[C@@]2(O)[C@H]3Cc4ccc(O)c5c4[C@@]2(CCN3CC2CC2)[C@H]1O5)c1cccc([125I])c1
**A:** 10.57

---

These records show Kd for Mu-type opioid receptor (Homo sapiens, UniProt P35372).
One number for each entry, in nM.

{"smiles": "O=C(N[C@@H]1CC[C@@]2(O)[C@H]3Cc4ccc(O)c5c4[C@@]2(CCN3CC2CC2)[C@H]1O5)c1cccc([125I])c1", "valueReported": 0.11}
{"smiles": "CN1CC[C@]23c4c5ccc(O)c4O[C@H]2[C@H](NC(=O)c2cccc([125I])c2)CC[C@@]3(O)[C@H]1C5", "valueReported": 0.08}

// next item, Kd requested
**Q:** Please look up its Kd: C=CCN1CC[C@]23c4c5ccc(O)c4O[C@H]2[C@H](NC(=O)c2cccc([125I])c2)CC[C@@]3(O)[C@H]1C5
**A:** 0.22

---

# targetUnderTest: Delta-type opioid receptor (Homo sapiens, UniProt P41143)
# Sequence (P41143 whole entry): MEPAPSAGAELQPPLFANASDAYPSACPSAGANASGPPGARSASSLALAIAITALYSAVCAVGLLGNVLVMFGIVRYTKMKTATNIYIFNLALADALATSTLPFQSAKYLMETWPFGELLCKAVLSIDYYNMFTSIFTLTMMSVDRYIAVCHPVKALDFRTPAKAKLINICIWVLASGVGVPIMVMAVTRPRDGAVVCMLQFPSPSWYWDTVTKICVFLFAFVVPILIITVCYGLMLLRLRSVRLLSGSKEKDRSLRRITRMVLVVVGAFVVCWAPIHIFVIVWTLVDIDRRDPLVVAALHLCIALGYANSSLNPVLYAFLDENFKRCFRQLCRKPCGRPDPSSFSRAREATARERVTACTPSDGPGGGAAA
# testSummary: Displacement of [3H]-DPDPE from DOR-1 expressed in CHO cells after 60 mins
measuredAttribute: pKi
Give bare numbers, as −log10 of the molar value.

{"smiles": "C=CCN1CC[C@]23c4c5ccc(O)c4O[C@H]2[C@H](NC(=O)c2cccc(I)c2)CC[C@@]3(O)[C@H]1C5", "targetUnderTest": "Delta-type opioid receptor (Homo sapiens, UniProt P41143)", "pKi": 8.59}

// next item, pKi requested
**Q:** Please look up its pKi: O=C(N[C@@H]1CC[C@@]2(O)[C@H]3Cc4ccc(O)c5c4[C@@]2(CCN3CC2CC2)[C@H]1O5)c1cccc(I)c1
**A:** 9.24
